assay: Particle size and polydispersity index of nanoparticle compositions (Zetasizer Nano ZS); format: physicochemical; settings: Table 1b
PROPERTY_LABEL: Size (nm)

Reference set, count: 4
{"columns": ["MOLECULE", "Size (nm)"],
 "data": [
  ["CCCCCCCCCN(CCCCC(=O)OCCCC)CCC1CCN(C(=O)CN(CCCCCCCCC)CCN(CCCCCCCCC)CCCCCCCCC)CC1", 105.7],
  ["CCCCCCCCCN(CCCCCCCCC)CCCC1CCN(C(=O)CCN(CCCCCCCCC)CCN(CCCCCCCCC)CCCCCCCCC)CC1", 69.9],
  ["CCCCCCCCCN(CCCC(=O)OCCCCC)CCC1CCCN(C(=O)CN(CCCCCCCCC)CCN(CCCCCCCCC)CCCCCCCCC)C1 (stereo not drawn)", 65.8],
  ["CCCCCCCCCN(CCCCCCCCC)CCN(CCCCCCCCC)CC(=O)N1CCN(C(=O)CN(CCCCCCCCC)CCCOC(=O)CCCCC)CC1", 117.4]
]}

a. CCCCCCCCCN(CCCCCCCCC)CCN(CCCCCCCCC)CC(=O)N1CCN(C(=O)CN(CCCCCCCCC)CCCCCC(=O)OCCC)CC1
b. CCCCCCCCCN(CCCC(=O)OCCCCC)CCC(=O)N1CCN(C(=O)CCN(CCCCCCCCC)CCN(CCCCCCCCC)CCCCCCCCC)CC1
Pick one: a or b . Which has the bigger Size (nm) number? Label of pick, please.
a

###

experiment: Particle size and polydispersity index of nanoparticle compositions (Zetasizer Nano ZS); format: physicochemical; conditions: Table 17-1
PROPERTY_LABEL: PDI

Sample records with PDI:
{"columns": ["SMILES_STRUCTURE", "PDI"],
 "data": [
  ["CCCCCCCCCN(CCO)CCCCCCCCC", 0.239],
  ["CCCCCCCCCCCCCCN(CCO)CCCCCCCCCCCCCC", 0.110],
  ["CCCCCCCCCCCCN(CCCCO)CCCCCCCCCCCC", 0.176]
]}

A. CCCCC/C=C\C/C=C\CCCCCCCCN(CCCCCCCC/C=C\C/C=C\CCCCC)CCOC
B. CCCCC/C=C\C/C=C\CCCCCCCCN(CCO)CCCCCCCCC
C. CCCCCCCCCCCCN(CCO)CCCCCCCCCCCC
Rank the items in ascending order with respect to PDI. Answer with the labels in sequence, matching the requested order.
B, A, C
(B: 0.095, A: 0.138, C: 0.24)

###

experiment: Concentration of RNA in nanoparticle composition (ultraviolet-visible spectroscopy); assay type: physicochemical; conditions: Table 5; hEPO mRNA; 40:20:38.5:1.5 Lipid:DOPE:Chol:PEG-DMG
PROPERTY_LABEL: Conc. (µg/mL)

// below: answered molecules
{"columns": ["SMILES_STRUCTURE", "PROPERTY_LABEL", "MEASURED"],
 "data": [
  ["CCCCCCCCCCCCCCN(CCCCCCCCCCCCCC)CCN1CCN(CCN(CCCCCCCCC)CCN(CCCCCCCCC)CCCCCCCCC)CC1", "Conc.", 1264.28],
  ["CCCCCCCCCCCCN(CCCCCCCCCCCC)CCN(CCCCCCCCCCCC)CCN1CCN(CCN(CCCCCCCCCCCC(=O)OC)CCCCCCCCCCCC(=O)OC)CC1", "Conc.", 665.11],
  ["CCCCCCCCCCCCN(CCCCCCCCCCCC)CCN(CCCCCCCCCCCC)CCN1CCN(CCN(CCCCCCCCCCCC)CCCCCCCCCCCC(=O)OC)CC1", "Conc.", 713.00],
  ["CCCCCCCCCCCCN(CCCCCCCCCCCC)CCN(CCCCCCCCCCCC)CCN1CCN(CCN(CCCCCC(=O)OCCCCC)CCCCCC(=O)OCCCCC)CC1", "Conc.", 603.76],
  ["CCCCCCCCCCCCN(CCCCCCCCCCCC)CCN(CCCCCCCCCCCC)CCN1CCN(CCN(CCCCCCCCC)CCCCCCCCC)CC1", "Conc.", 438.20]
]}

P. CCCCCCCCCCCCN(CCCCCCCCCCCC)CCN(CCCCCCCCCCCC)CCN1CCN(CCN(CCCCCCCCCCCC)CCCCCC(=O)OCCCCC)CC1
Q. CCCCCCCCCCCCN(CCCCCCCCCCCC)CCN(CCCCCCCCCCCC)CCN1CCN(CCN(CCCCCCCC)CCCCCCCC)CC1
Response body: label of entry with the larger Conc.; valid values P , Q . Lab log: write the label of the selected item as the result.
Q
(Q: 564.97 µg/mL, P: 320.14 µg/mL)
